- testedOn: hMAO-A (Homo sapiens)
- Construct: purchased Sigma-Aldrich (Munich, Germany); host or cells: baculovirus-infected BTI insect cells
- Sequence (P21397 1-527): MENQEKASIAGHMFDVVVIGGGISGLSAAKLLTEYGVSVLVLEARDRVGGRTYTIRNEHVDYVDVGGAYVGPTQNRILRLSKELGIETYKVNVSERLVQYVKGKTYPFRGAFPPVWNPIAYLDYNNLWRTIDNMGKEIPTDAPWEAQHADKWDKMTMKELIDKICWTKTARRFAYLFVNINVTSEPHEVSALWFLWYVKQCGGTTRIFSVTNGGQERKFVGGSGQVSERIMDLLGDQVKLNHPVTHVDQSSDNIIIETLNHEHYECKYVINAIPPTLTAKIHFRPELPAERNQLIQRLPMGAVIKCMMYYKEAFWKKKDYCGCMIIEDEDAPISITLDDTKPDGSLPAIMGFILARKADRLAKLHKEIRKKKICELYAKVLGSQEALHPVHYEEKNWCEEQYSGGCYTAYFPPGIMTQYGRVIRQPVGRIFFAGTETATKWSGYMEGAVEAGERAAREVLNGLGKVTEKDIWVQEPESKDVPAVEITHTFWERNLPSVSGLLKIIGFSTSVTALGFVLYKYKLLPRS
- testMethodNotes: Reversibility of hMAO-A inhibition, centrifugation-ultrafiltration method
- Format: biochemical
- testConditions: compound 0.50 μM, incubated one hour at 37 °C, before washing, mean ± SEM of three experiments; read-out: hMAO-A Inhibition (%) Before Washing
Binary call on inhibition at 0.5 µM: TRUE from 80% upward, FALSE beneath that.

Example results:
compound="COc1ccc(-c2cc(=O)c3c(O)c(OC)c(OC)cc3o2)cc1 [Compound 4, salvigenin]" answerlabel=TRUE
compound="COc1c(OC)c(O)c2c(=O)cc(-c3ccc(O)cc3)oc2c1OC [Compound 1, xanthomicrol]" answerlabel=TRUE
compound="CC(=O)OC[C@H]1O[C@@H](O[C@H]2[C@H](Oc3cc(O)c4c(=O)cc(-c5ccc(O)cc5)oc4c3O)O[C@H](COC(C)=O)[C@@H](O)[C@@H]2O)[C@H](O)[C@H](O)[C@@H]1O [Compound 3]" answerlabel=FALSE

Q: Please check the record O=C(NCCN1CCOCC1)c1ccc(Cl)cc1 [Moclobemide, moclobemide, reference compound] and state if its inhibition at 0.5 µM is at or above 80%.
A: TRUE

---

Answer each item with its documented Experimental SI.
- testedOn: hMAO-A (Homo sapiens, UniProt P21397)
- Construct: purchased Sigma-Aldrich (Munich, Germany); host or cells: baculovirus-infected BTI insect cells
- testMethodNotes: hMAO-A inhibition, fluorimetric Amplex Red assay with p-tyramine, kinetic Ki determination
- Format: biochemical
- testConditions: SI = Ki (MAO-A)/Ki (MAO-B), from experimental Ki values
Answers are plain numbers.

molecule=COc1c(OC)c(O)c2c(=O)cc(-c3ccc(O)cc3)oc2c1OC reportedvalue=0.007

List the reported Experimental SI of each molecule below.
1. COc1ccc(-c2cc(=O)c3c(O)c(OC)c(OC)cc3o2)cc1
2. CC(=O)OC[C@H]1O[C@@H](O[C@H]2[C@H](Oc3cc(O)c4c(=O)cc(-c5ccc(O)cc5)oc4c3O)O[C@H](CO)[C@@H](O)[C@@H]2O)[C@H](O)[C@H](O)[C@@H]1O
3. CC(=O)OC[C@H]1O[C@@H](O[C@H]2[C@H](Oc3cc(O)c4c(=O)cc(-c5ccc(O)cc5)oc4c3O)O[C@H](COC(C)=O)[C@@H](O)[C@@H]2O)[C@H](O)[C@H](O)[C@@H]1O

A:
1: 0.086; 2: 0.015; 3: 0.034
